- assay_protocol: in vitro
- Assay type: cell-based
readout: hemolysis (%)
Answers are plain numbers, in %.

Would you please look over these solved cases?
CN(c1ccc(CNCCN)cc1C(=O)Nc1ccc(S(=O)(=O)N2CCN(c3cc(Cl)cc(Cl)c3)CC2)cc1)S(C)(=O)=O [EBL-3025]	1.98
CN(c1ccccc1C(=O)Nc1ccc(S(=O)(=O)N2CCCCC2)cc1)S(C)(=O)=O [JEDI-852]	0.03
Cc1cc(C#N)nc(N2CCN(S(=O)(=O)c3ccc(NC(=O)c4cc(CNCCCN)ccc4N(C)S(C)(=O)=O)cc3)CC2)n1.Cl.Cl [EBL-3599]	0.06

Give measured hemolysis for every item shown.
1. CC(=O)N1CCc2cc(S(=O)(=O)N3CCN(c4cccc(C(F)(F)F)c4)CC3)ccc21 [AZ1, reference compound]
2. CN(c1ccccc1C(=O)Nc1ccc(S(=O)(=O)N2CCN(c3cccc(C(F)(F)F)c3)CC2)cc1)S(C)(=O)=O [JEDI-1444]
3. Cc1cc(C#N)nc(N2CCN(S(=O)(=O)c3ccc(NC(=O)c4cc(CN5CC(CN)C5)ccc4N(C)S(C)(=O)=O)cc3)CC2)n1 [EBL-3647]
4. Cc1cc(C#N)nc(N2CCN(S(=O)(=O)c3ccc(NC(=O)c4ccccc4N(C)S(C)(=O)=O)cc3)CC2)n1 [EBL-3339]

OUT:
1. 2.1
2. 0.02
3. 0.13
4. 0.05

----------
- assay_protocol: Metabolic stability in human liver microsomes
- Format: in vitro ADME
- experimental_context: pH 7.4
- Protocol: Thermodynamic solubility was assessed by dissolving 2 to 3 mg of test compound to equilibrium in 100 mM KPO4-buffer, pH 7.4. The metabolic stability assay was performed in the presence of human and mouse liver microsomes by measurement of test compounds disappearance over time (60 min). […] The plate is then sealed, centrifuged and the supernatant is analysed by liquid […] was determined in 0.5 mg/ml human or animal liver microsomes at a compound concentration […]
readout: microsomal CLint at 1 µM (µL/min/mg)
Give bare numbers, in µL/min/mg.

Give measured microsomal CLint at 1 µM for every item shown.
1. Cc1cc(C#N)nc(N2CCN(S(=O)(=O)c3ccc(NC(=O)c4ccccc4N(C)S(C)(=O)=O)cc3)CC2)n1 [EBL-3339]
2. CN(c1ccc(CNCCN)cc1C(=O)Nc1ccc(S(=O)(=O)N2CCN(c3cc(Cl)cc(Cl)c3)CC2)cc1)S(C)(=O)=O [EBL-3025]

OUT:
1: 551; 2: 42.2

Give measured microsomal CLint at 1 µM for every item shown.
1. CN(c1ccccc1C(=O)Nc1ccc(S(=O)(=O)N2CCN(c3cccc(C(F)(F)F)c3)CC2)cc1)S(C)(=O)=O [JEDI-1444]
2. Cc1cc(C#N)nc(N2CCN(S(=O)(=O)c3ccc(NC(=O)c4cc(CN5CC(CN)C5)ccc4N(C)S(C)(=O)=O)cc3)CC2)n1 [EBL-3647]

OUT:
1: 209; 2: 3.1

----------
Please provide measured MIC for the entries that follow.
- Tested on: clinical MDR K. pneumoniae isolates
- assay_protocol: MIC, clinical multi-drug resistant K. pneumoniae isolates
- Format: cell-based
- experimental_context: Klebsiella pneumoniae, read-out: MIC K. pneumoniae EN0142
Give bare numbers, in µg/mL.

Would you please look over these solved cases?
CNC(C)C1CCC(N)C(OC2C(N)CC(N)C(OC3OCC(C)(O)C(NC)C3O)C2O)O1 (centres unmarked) [Gentamicin]	64
Cc1cc(C#N)nc(N2CCN(S(=O)(=O)c3ccc(NC(=O)c4cc(CN5CC(CN)C5)ccc4N(C)S(C)(=O)=O)cc3)CC2)n1 [EBL-3647]	2
C[C@@H](O)[C@H]1C(=O)N2C(C(=O)O)=C(S[C@@H]3CN[C@H](C(=O)N(C)C)C3)[C@H](C)[C@H]12 [Meropenem]	0.5

IN: Give MIC for Cc1cc(C#N)nc(N2CCN(S(=O)(=O)c3ccc(NC(=O)c4cc(CNCCCN)ccc4N(C)S(C)(=O)=O)cc3)CC2)n1.Cl.Cl [EBL-3599]
OUT: 2

----------
- assay_protocol: in vivo
- Design: species or system NMRI mice
- experimental_context: female, NMRI, mouse, sc, 25 mg/kg
- Procedure: PK and safety studies were done the Latvian Institute for Organic Synthesis (Riga, Latvia) and in vivo efficacy studies were done at Statens Serum Institut (Copenhagen, Denmark). Assays were done in accordance with the relevant permits at the respective sites (SI Appendix). For PK studies, plasma samples were taken from mice dosed subcutaneously and the samples were analyzed by UPLC/MS/MS. […]
Please provide measured AUC for the entries that follow.

Cc1cc(C#N)nc(N2CCN(S(=O)(=O)c3ccc(NC(=O)c4cc(CN5CC(CN)C5)ccc4N(C)S(C)(=O)=O)cc3)CC2)n1	55300 ng·h/mL

IN: Give AUC for Cc1cc(C#N)nc(N2CCN(S(=O)(=O)c3ccc(NC(=O)c4cc(CNCCCN)ccc4N(C)S(C)(=O)=O)cc3)CC2)n1.Cl.Cl
OUT: 58000 ng·h/mL

----------
- assay_protocol: Metabolic stability in mouse liver microsomes
- Type: in vitro ADME
- experimental_context: pH 7.4
readout: microsomal CLint at 1 µM (µL/min/mg)
Answers are plain numbers, in µL/min/mg.

Would you please look over these solved cases?
CN(c1ccc(CNCCN)cc1C(=O)Nc1ccc(S(=O)(=O)N2CCN(c3cc(Cl)cc(Cl)c3)CC2)cc1)S(C)(=O)=O	31
Cc1cc(C#N)nc(N2CCN(S(=O)(=O)c3ccc(NC(=O)c4ccccc4N(C)S(C)(=O)=O)cc3)CC2)n1	625

# context switch: different compound, same microsomal CLint at 1 µM
IN: Give microsomal CLint at 1 µM for CN(c1ccccc1C(=O)Nc1ccc(S(=O)(=O)N2CCN(c3cccc(C(F)(F)F)c3)CC2)cc1)S(C)(=O)=O
OUT: 126

----------
- assay_protocol: in vivo
- Set-up: species or system NMRI mice
- experimental_context: female, NMRI, mouse, sc, 50 mg/kg
Please provide measured Cmax for the entries that follow.
Give bare numbers, in µg/mL.

Cc1cc(C#N)nc(N2CCN(S(=O)(=O)c3ccc(NC(=O)c4cc(CNCCCN)ccc4N(C)S(C)(=O)=O)cc3)CC2)n1.Cl.Cl	65

# context switch: different compound, same Cmax
IN: Give Cmax for Cc1cc(C#N)nc(N2CCN(S(=O)(=O)c3ccc(NC(=O)c4cc(CN5CC(CN)C5)ccc4N(C)S(C)(=O)=O)cc3)CC2)n1
OUT: 72

----------
Please provide measured solubility thermodynamic at 24 h for the entries that follow.
- assay_protocol: Thermodynamic solubility
- Type: physicochemical
- experimental_context: 37 °C, aqueous buffer, thermodynamic from solid; 100 mM KPO4-buffer, pH 7.4
- Procedure: Thermodynamic solubility was assessed by dissolving 2 to 3 mg of test compound to equilibrium in 100 mM KPO4-buffer, pH 7.4. The metabolic stability assay was performed in the presence of human and mouse liver microsomes by measurement of test compounds disappearance over time (60 min). […] The plate is then sealed, centrifuged and the supernatant is analysed by liquid […] a new HPLC vial and analysed by liquid chromatography coupled to triple quadrupole mass […]

Cc1cc(C#N)nc(N2CCN(S(=O)(=O)c3ccc(NC(=O)c4cc(CNCCCN)ccc4N(C)S(C)(=O)=O)cc3)CC2)n1.Cl.Cl [EBL-3599]	1530 µM
CN(c1ccccc1C(=O)Nc1ccc(S(=O)(=O)N2CCN(c3cccc(C(F)(F)F)c3)CC2)cc1)S(C)(=O)=O [JEDI-1444]	0.21 µM
Cc1cc(C#N)nc(N2CCN(S(=O)(=O)c3ccc(NC(=O)c4cc(CN5CC(CN)C5)ccc4N(C)S(C)(=O)=O)cc3)CC2)n1 [EBL-3647]	1090 µM

Give measured solubility thermodynamic at 24 h for every item shown.
1. CN(c1ccc(CNCCN)cc1C(=O)Nc1ccc(S(=O)(=O)N2CCN(c3cc(Cl)cc(Cl)c3)CC2)cc1)S(C)(=O)=O [EBL-3025]
2. Cc1cc(C#N)nc(N2CCN(S(=O)(=O)c3ccc(NC(=O)c4ccccc4N(C)S(C)(=O)=O)cc3)CC2)n1 [EBL-3339]

OUT:
1. 4 µM
2. 1.2 µM

----------
- System: E. coli ATCC 25922
- assay_protocol: MIC (CLSI broth microdilution), wild-type E. coli
- Format: cell-based
- experimental_context: Escherichia coli, ATCC25922; read-out: MIC E. coli ATCC 25922 Wild-type
readout: MIC (µg/mL)
Answers are plain numbers, in µg/mL.

Cc1cc(C#N)nc(N2CCN(S(=O)(=O)c3ccc(NC(=O)c4cc(CN5CC(CN)C5)ccc4N(C)S(C)(=O)=O)cc3)CC2)n1	2

IN: Give MIC for Cc1cc(C#N)nc(N2CCN(S(=O)(=O)c3ccc(NC(=O)c4cc(CNCCCN)ccc4N(C)S(C)(=O)=O)cc3)CC2)n1.Cl.Cl
OUT: 2

----------
- assay_protocol: Plasma protein binding (RED device)
- Format: in vitro ADME
- experimental_context: plasma (50% plasma, 50% isotonic buffer), pH 7.4; human plasma
readout: fraction unbound at 4 h, 10 µM
One number for each entry.

Would you please look over these solved cases?
Cc1cc(C#N)nc(N2CCN(S(=O)(=O)c3ccc(NC(=O)c4cc(CN5CC(CN)C5)ccc4N(C)S(C)(=O)=O)cc3)CC2)n1	0.025
Cc1cc(C#N)nc(N2CCN(S(=O)(=O)c3ccc(NC(=O)c4ccccc4N(C)S(C)(=O)=O)cc3)CC2)n1	0.0054
CN(c1ccc(CNCCN)cc1C(=O)Nc1ccc(S(=O)(=O)N2CCN(c3cc(Cl)cc(Cl)c3)CC2)cc1)S(C)(=O)=O	0.001
CN(c1ccccc1C(=O)Nc1ccc(S(=O)(=O)N2CCN(c3cccc(C(F)(F)F)c3)CC2)cc1)S(C)(=O)=O	0.001

# context switch: different compound, same fraction unbound at 4 h, 10 µM
IN: Give fraction unbound at 4 h, 10 µM for Cc1cc(C#N)nc(N2CCN(S(=O)(=O)c3ccc(NC(=O)c4cc(CNCCCN)ccc4N(C)S(C)(=O)=O)cc3)CC2)n1.Cl.Cl
OUT: 0.02
